test: reversal of MRP1-mediated doxorubicin resistance, pilot screen, H69AR cells, doxorubicin co-treatment (AID 601); settings: H69AR cells, CellTiter-Glo, 72 h; compound alone cytotoxicity; at 10 µM
MEASUREMENT_NAME: viability (%)
State just the number; it will be interpreted in %.

Answer with the recorded viability for the molecule listed here: CN(Cc1ccccc1)Cc1c[nH]c2ccccc12
89.8

Answer with the recorded viability for the molecule listed here: CCCOc1cccc(C2/C(=C(/O)c3ccccc3)C(=O)C(=O)N2CCN(C)C)c1 (stereo not given)
91.6

Answer with the recorded viability for the molecule listed here: COc1ccc(Br)cc1CNC(=O)C1CCCN(S(C)(=O)=O)C1 (stereo not given)
88.4

Answer with the recorded viability for the molecule listed here: CCOc1ccc(OCc2cccc(C(=O)O)c2)cc1
89.6

Answer with the recorded viability for the molecule listed here: Cc1cc(NC(c2cccnc2)c2c(C)[nH]c3ccccc23)no1 (stereo not given)
89

====

molecular target: Receptor tyrosine-protein kinase erbB-2 (Homo sapiens); test: reducers of endogenous Her2 protein level, primary screen, SKBR3 breast tumor cells, AlphaScreen, ATP viability (AID 461); settings: 18-24 h, at 10 µM, stronger effect = lower value;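 further: lower value means less Her2 protein in the cells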
MEASUREMENT_NAME: Her2 level (%)
State just the number; it will be interpreted in %.

Consider the reported Her2 level for these molecules:
• Cc1ncoc1C(=O)Nc1ccccc1C(N)=O = 101
• CC(=O)NC(Cc1c[nH]c2ccccc12)C(=O)OCC(=O)Nc1cc(C)on1 (stereo not given) = 117
• Cc1ccc(C)c(N2CCN(S(=O)(=O)c3ccc4c(c3)OCCO4)CC2)c1 = 96.5
• N#CC1=C(N)Oc2n[nH]c(-c3cccs3)c2C1c1cccs1 (stereo not given) = 79.5
• CCC(NS(=O)(=O)c1ccc(C)cc1)C(=O)N1CCC2(O)CCCCC2C1 (stereo not given) = 105
• CCC(Oc1ccc2ccccc2c1)C(=O)O (stereo not given) = 98.5

Answer with the recorded Her2 level for the molecule listed here: COC(=O)c1ccccc1NC(=O)CSc1nnnn1C1CCCCC1
112

Answer with the recorded Her2 level for the molecule listed here: S=C(c1ccc(-c2cc(Cl)ccc2Cl)o1)N1CCOCC1
85

====

Listed here are compounds together with their documented viability.
experiment: HUVEC growth inhibition – cell-based, human, primary screen (AID 575); details: HUVEC proliferation, CellTiter-Glo luminescence, 72 h; at 10 µM; stronger effect = lower value;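 further: 100% = median of untreated cell wells with 0.1% DMSO on each plate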
State just the number; it will be interpreted in %.

Consider the reported viability for these compounds:
• O=C(CCSc1nc(-c2ccco2)cc(C(F)(F)F)n1)Nc1ccc2c(c1)OCO2 = 56.3
• CC(C)(C)NC(=O)COC(=O)c1ccc(O)cc1 = 103

Answer with the recorded viability for the compound listed here: O=C(NCc1ccco1)c1csc(Nc2ccccc2Cl)n1
60.5

Answer with the recorded viability for the compound listed here: CCOC(=O)N1CCN(C(=O)CSc2ncnc3ccccc23)CC1
87.2

====

Listed here are molecules together with their documented differential viability (reversal).
test: reversal of MRP1-mediated doxorubicin resistance, pilot screen, H69AR cells, doxorubicin co-treatment (AID 601); conditions: H69AR cells + 2 uM doxorubicin, CellTiter-Glo, 72 h; at 10 µM; stronger effect = higher value
State just the number; it will be interpreted in %.

Consider the reported differential viability (reversal) for these molecules:
• CCn1nnc(-c2ccccc2NC(=O)c2ccc(-n3cnnn3)cc2)n1 = 1.74
• O=c1c2ccccc2sn1-c1ccc(S(=O)(=O)N2CCCCC2)cc1 = 5.85
• COc1ccccc1CNC(=O)CCNC(=O)Cn1ccc2ccccc2c1=O = 12.8
• CN1CCN(c2oc(COc3ccc(-c4ccccc4)cc3)nc2C#N)CC1 = 17.7
• Cc1cc(C(F)(F)F)nn1Cc1ccc(C(=O)NCc2ccco2)o1 = 0.38
• O=C(C1CCC1)N1CCc2cc(S(=O)(=O)N3CCc4ccccc4C3)ccc21 = -5.04
• CCOc1ccc(NC(=O)C2CC(=O)N(C(C)C)C2)cc1 (stereo not given) = 7
• O=S1(=O)CCC(NS(=O)(=O)/C=C/c2ccccc2)C1 (stereo not given) = 9.1
• ON1C2CCCCC2N(O)C1c1c(F)c(F)c(F)c(F)c1F (stereo not given) = 10.3
• Cc1nnc(SCc2cc(=O)[nH]c(N3CCCCC3)n2)s1 = 2.25

Answer with the recorded differential viability (reversal) for the molecule listed here: COC(=O)CCCCCNc1ccc(C(=O)OC)cc1N
6.14

Answer with the recorded differential viability (reversal) for the molecule listed here: Cc1cc2cc(CN(CC3CCCO3)C(=O)c3cnccn3)c(=O)[nH]c2cc1C (stereo not given)
6.07

Answer with the recorded differential viability (reversal) for the molecule listed here: CCCCc1n[nH]c2c1C(=O)CC(C)(C)C2
13.4

Answer with the recorded differential viability (reversal) for the molecule listed here: C=CCn1c(COc2ccccc2)nnc1SCC(=O)C(C)(C)C
5.13

Answer with the recorded differential viability (reversal) for the molecule listed here: COc1ccc(Cl)cc1NC(=O)c1oc(C)nc1C
-2.13

The origin of these recorded values is PubChem BioAssay.
